- Tested target: 3',5'-cyclic-AMP phosphodiesterase 4D (Homo sapiens)
- Sequence (Q08499 whole entry): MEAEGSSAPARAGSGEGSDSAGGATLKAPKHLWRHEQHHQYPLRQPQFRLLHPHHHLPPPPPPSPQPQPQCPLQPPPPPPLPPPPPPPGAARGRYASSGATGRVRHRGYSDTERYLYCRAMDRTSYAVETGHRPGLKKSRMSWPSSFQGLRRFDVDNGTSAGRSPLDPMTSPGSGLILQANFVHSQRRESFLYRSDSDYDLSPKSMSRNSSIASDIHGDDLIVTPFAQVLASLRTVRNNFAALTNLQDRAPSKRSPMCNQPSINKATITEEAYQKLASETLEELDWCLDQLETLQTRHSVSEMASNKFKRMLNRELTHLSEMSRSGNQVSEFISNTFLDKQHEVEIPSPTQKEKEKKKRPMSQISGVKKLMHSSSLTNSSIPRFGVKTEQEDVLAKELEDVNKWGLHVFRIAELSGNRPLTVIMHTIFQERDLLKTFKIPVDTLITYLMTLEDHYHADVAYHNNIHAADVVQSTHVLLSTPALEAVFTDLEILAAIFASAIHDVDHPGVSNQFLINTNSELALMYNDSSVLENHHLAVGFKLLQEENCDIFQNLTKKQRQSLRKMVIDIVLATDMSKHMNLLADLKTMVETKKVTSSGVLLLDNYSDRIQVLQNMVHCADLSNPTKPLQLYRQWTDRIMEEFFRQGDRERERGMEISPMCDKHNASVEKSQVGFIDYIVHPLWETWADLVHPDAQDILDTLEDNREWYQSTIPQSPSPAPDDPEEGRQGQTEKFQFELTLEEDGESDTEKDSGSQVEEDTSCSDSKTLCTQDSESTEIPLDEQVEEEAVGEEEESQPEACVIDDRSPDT
- Experiment: Activation of PDE4D5 (unknown origin)
Value kind: EC50 (nM)
Numeric only. Scale: nM

Lab book: EC50 of CCc1nc(-c2ccc(Cl)c(F)c2)nn1CC(=O)NCc1cc(Cl)cc(Cl)c1 noted as 1200

---

- Experiment: Activation of recombinant human procaspase-3 using Ac-DEVD-pNA as substrate preincubated for 12 hrs followed by substrate addition by absorbance based assay
Value kind: pEC50
# pEC50 is unitless: minus log10 of the molar concentration; print number only

Lab book: pEC50 of O=C(CN1CCN(Cc2nc(-c3ccc(COc4ccc(F)cc4)cc3)no2)CC1)N/N=C/c1ccc(OCc2csc(Cc3ccc4c(c3)OCO4)n2)cc1O noted as 6.02

# credit: ChEMBL document CHEMBL5375949
